- ASSAY: Pharmacokinetic studies in mice
- Assay type: in vivo, CD-1 mice
- ASSAY CONDITIONS: female, CD-1, mouse, plasma, iv, 5 mg/kg

# MOL SMILES, clearance (mL/min/kg)
rows = [
    ("CO[C@H]1/C=C/O[C@@]2(C)Oc3c(C)c(O)c4c(c3C2=O)C2=NC3(CCN(CC(C)C)CC3)NC2=C(NC(=O)/C(C)=C\\C=C\\[C@H](C)[C@H](O)[C@@H](C)[C@@H](O)[C@@H](C)[C@H](OC(C)=O)[C@@H]1C)C4=O", 10.3),
]

----------
- ASSAY: in vitro
- ASSAY CONDITIONS: human, plasma, plasma fu (human), Table 2
MEASUREMENT LABEL: fraction unbound

# MOL SMILES, VALUE REPORTED
records = [
    ("CO[C@H]1/C=C/O[C@@]2(C)Oc3c(C)c(O)c4c(c3C2=O)C2=NC3(CCN(CC(C)C)CC3)NC2=C(NC(=O)/C(C)=C\\C=C\\[C@H](C)[C@H](O)[C@@H](C)[C@@H](O)[C@@H](C)[C@H](OC(C)=O)[C@@H]1C)C4=O", 0.0384),
]

----------
- ASSAY: Pharmacokinetic studies in mice
- Format: in vivo, CD-1 mice
- ASSAY CONDITIONS: female, CD-1, mouse, plasma

# COMPOUND, U, half-life
measured = [
    ("CO[C@H]1/C=C/O[C@@]2(C)Oc3c(C)c(O)c4c(c3C2=O)C2=NC3(CCN(CC(C)C)CC3)NC2=C(NC(=O)/C(C)=C\\C=C\\[C@H](C)[C@H](O)[C@@H](C)[C@@H](O)[C@@H](C)[C@H](OC(C)=O)[C@@H]1C)C4=O [RBT, Rifabutin]", "min", 258),
]

----------
- ASSAY: Caseum binding
- Type: in vitro ADME

# COMPOUND, fraction unbound
measured = [
    ("CO[C@H]1/C=C/O[C@@]2(C)Oc3c(C)c(O)c4c(c3C2=O)C2=NC3(CCN(CC(C)C)CC3)NC2=C(NC(=O)/C(C)=C\\C=C\\[C@H](C)[C@H](O)[C@@H](C)[C@@H](O)[C@@H](C)[C@H](OC(C)=O)[C@@H]1C)C4=O [RBT, Rifabutin]", 0.0094),
]

----------
- ASSAY: in vitro
- ASSAY CONDITIONS: human, plasma

# COMPOUND, fraction unbound
records = [
    ("O=C1CCc2c(OC[C@]3(O)CCN(c4c(F)cc(Cl)cc4F)C[C@H]3O)ccc(F)c2N1 [OPC-167832, Quabodepistat]", 0.0122),
]

----------
- ASSAY: Pharmacokinetic studies in mice
- Type: in vivo, CD-1 mice
- ASSAY CONDITIONS: female, CD-1, mouse, plasma, iv, 5 mg/kg, Vd, CD-1 mice, i.v. 5 mg/kg
MEASUREMENT LABEL: Vd

# MOLECULE, VALUE REPORTED
measured = [
    ("CO[C@H]1/C=C/O[C@@]2(C)Oc3c(C)c(O)c4c(c3C2=O)C2=NC3(CCN(CC(C)C)CC3)NC2=C(NC(=O)/C(C)=C\\C=C\\[C@H](C)[C@H](O)[C@@H](C)[C@@H](O)[C@@H](C)[C@H](OC(C)=O)[C@@H]1C)C4=O [RBT, Rifabutin]", "3.9 L/kg"),
]

Just for reference, paper PMC12067261 is where these values come from.
